# Measurement protocol: soluble fraction after stress (log2 fold change); higher = more stays soluble; pooled small domains, quantitative proteomics
# Run parameters: stress: 50 degC
Rule: soluble fraction (log2) of -0.03 or more gives label 1; anything lower gives label 0.

1) HMAYSEEERNLIRSRLKDVAAALFKEKGIRDTNIDEIYTPVGISKTFFYSFFPSKAVLAIAIMK ... label 1
2) HMRTLSAGVAGRLRADILNGLLEPGRRLGMAELTERYGAGMSPVREALSRLVGEGLVQSEGQRGFRVA ... label 0
3) HMPPNRDDEHLQALRDYYAANRRIPSLQRVASLLGFSSRSAAVKLMGRLADEGFIERTADDDAWITGKRFF ... label 0
4) HMEKAISSLTLEEAKKRLEMVRSEKDASLQIYKETGSETARVTAENYGKEENSLLLHISEMSNIV ... label 0
5) HMSEQVTMIDVEGKTETEAKKALEDLGLKVEITYESADAAAGTVIGQDVKAGSTVSEGSRVTLTVSGQ ... label 1
6) HMSDFDPTLILDLIKGSGEALTKREIARALGIKGGDKRIELKSHLKSMEAEGVIVKQAGGAYSVP ... label 0
7) HMTDDALIGKTAQVTVAIKPGSVGQITARVGDERVERLARASADAEIAAGSLVTIKSIAGDSVIVAPE ... label 1
8) HMQQFGANVRLIRKARQMSIKQLSELSGVSQTMISEVERGLKIPTIDVAGKIAAALGIDLTNLMG ... label 0
9) HMGEAIPVPDLKHKALTDAEHLVHELGLEIQVVDTGYVKSLPADYILGQSLAPGEKVKSGHIIYVTINSP ... label 1
10) HMSETVYQYVARQLRDMLGSGEIPVGQQLPTYRELAKRFQVSLSVIQRAMRQLKAEAVVSIAHGQGVKAVR ... label 0
11) HMGEQYYVLIDNKQNGPHNINAIQKMIDQNIVNRQTLIWKKGMTDWGNIMDDKDLKEMVNKIP ... label 0
12) HMEVKEVDYSAFMTMTEENSISKVEIEENQILFKKKGDDQTTYKTARMDDPALITRLHDQGVDFTGQ ... label 1
13) HMSDTGQELHDALNMARRTLTILEEQAAGYTALTIPARLVLELEEKRKDVVRLETQIRSAATGTPG ... label 0
14) HMEYLIENYGSVINQARMKKGMTQEQLSSKTGVSQAYIRSIESQNMKPTDAVARKIEFELGIKLFE ... label 1
15) HMQDNPELVARIEKAAARGTSSMSDWERSFMGSLLDSAKKWGRLTAKQHEVFQRIEKKTDPAHQAAVS ... label 1
16) HMINRPVYVPLYTNLDVKDAAEIAEKLEENNIAYKLEDQGETILVNPEQKYKVRLMLAQEGLPKG ... label 0

* * *

# Measurement protocol: soluble fraction after stress (log2 fold change); higher = more stays soluble; pooled small domains, quantitative proteomics
# Run parameters: stress: 50 degC
Classification field: enter Criterion met for soluble fraction (log2) values not below -0.07, Criterion not met for values below it.

1. HMGGYLIGDVAQMVGLSRDALRFYEKKGIIRADKKENGYRYYSEDDIYRLMYILYHRKMNTSLEEIGGLMS ... Criterion not met
2. HMGLSAEAARMAIQDAGLSKEDFAQKLGIKKVERVVEWEAGTSKPTFVQAQKIANATNIPFGYLFLVNPPK ... Criterion met
3. HMALLKRQDEILMYLYTQNKWITGNELAQLFHVSLRTIRNDISFINTEKSNSVLSNRNKGYHIAKDFVYNE ... Criterion not met
4. HMRGYGDRIRILRERAGITIEQLAERLGVAPYFIRRTELSEVYPTKPYIEALADVLNIDASYLARHI ... Criterion not met
5. HMRGLLSQREHDVLDLVARGFSYGEIARLRSISVSTVQTHIKNLYRKLAVSSRTEAVYEAKQMGI ... Criterion not met
6. HMKSVILQLHPETLRWIREEAQADMADASVIQLLNDWELGTKKPTLSQVQKLSHETHIPFGYFFLKEKPA ... Criterion not met
7. HMIGTPLSEWQKDAPEEITRDQIAELVILKFVTVEQLALASDAQLQRIGMGGVGLRERAKLYLNRK ... Criterion not met
8. HMGMDALIGRRVFVSEEILPGDTGGRMAVDGDSWRAISVGTASNIPAGTEVRIRGHQSLVLEVEP ... Criterion not met
9. HMLRGKNALMSQLDQIQGIGPKRKRALFNHFLTLDAIKQADVETLRQAPGMNLPAAEQVYRHFHM ... Criterion met
10. HMPPPVERAIRKLGHDLSLARRRRRISQDSMAQRMGASVSTVRRIEKGDPRIPIHFIARAMMILGDLKAL ... Criterion met
11. HMIHSEEIQDHIFVKQLGEVFLRNHINYENIMKSWDDHTNVIKRFRRYPHRNKILNRESTIDEISFLKE ... Criterion met
12. HMDYNYLVFVTNTGPRSIAVEDLEMTVSDGKLVVSSGADGETFDLSTLTKMYFSDAAVVSINDV ... Criterion not met
13. HMGDLLTVDRVAATSGLGVDTIRYYQRLGLLDPPVRHGRRALYSTAHLDRLVEIRQLADEGFSLAQIATL ... Criterion not met
14. HMPLDKDTTLDEIYRRFNMEHPADYKGHSLSMGDIVVFRQDGKQTAYYVDEGADYRQVPEFFVK ... Criterion met
15. HMNYYDLLGIPKSATKQQIRKAYRTKAKEFHPDVNGPFNSHMHFLLLKQAYETLMDANMRHVYDMALIS ... Criterion not met
16. HMAHESYVKEQLLLSLTNHEDPIMQISLIEQLTKMHERNIIHELEKLTVDVQTNEEVKVQAYASLLILS ... Criterion not met
17. HMSNNENSILEKLNSFSGKKIKVSHTIGSLAARLDEYPKIKMWLYKRIRENSINEQAYKYLIFIIERKVR ... Criterion not met
18. HMVGEPEPIRYSRFLDEMKSGKLDSVVIQGDTILGVRKDKSQFKTVNPETDYSALIGALDKAGVGIEGRA ... Criterion met
19. HMEKFTGELSQEEKNVLDALSHEEMHVDIIIKLTKLETSAVSSTLSLLEIKGLIKNIGGQNYIK ... Criterion met
20. HMDLEELSNKMNNVFESLSSDLRDIIIMSDIEGLSYEEISHKINIPIGTVRSRLHRARDLMVRVIKEN ... Criterion not met
21. HMKKERITWDERLERFAKYITENESLPYPSSKEHAWFEENKALYDAGELESVRAQSFSFLLKILRRMNLI ... Criterion not met
22. HMAIDINKIYSEIKKKIPNQDNHIKEILSIIWRDFNNYQNIKSRSILINGEKSSPKKEIFNIIEDNINIPV ... Criterion met
23. HMVEIPEFKITTFVNTDNEQIAEFENGFTDKKAEITFNNTKYVFKEKLPDQDGIRTYVYEELHE ... Criterion met
24. HMSNRIDKIKLNHWLNIRKTSLDVLNNLLSKHLNHKINFENLENLDEQAIEKISEVLSIPKNKLLINDDVP ... Criterion met
25. HMNGAAAEQARKQLMTALKASEFIAQDKLDEWLDALALPQEKRSAIIDAVDELDYEEAISELEN ... Criterion met
26. HMEDTFEYPVSVNGKLRFKIELPVSMEKDEIRNIVLNDERAKKWLATGTLTNLIVVPNRIINIVIK ... Criterion not met
27. HMLLTHEEQIVKRGWQAPVGPFAILDSRAEAMHGDLEMLRGDREAAEQHFRRAWQIIGPIVEQ ... Criterion met
28. HMTLSVRQRMSQIINKIDVSNFTDFTKLFDINEGRLGVAVTFLAILELLKDTMIDVIQNEEFAPLHIKVSS ... Criterion not met
29. HMTNELTEIFNSIRLTKKQKELLQSNYLSLRETYFLQGKTAFNLKFKNIAGLGKSTKKVLLEFFEESIE ... Criterion not met
30. HMAGGNHPTRLELLDSAAHIAERDGTSALTVDAITKSAGHAKGTFYIHFDDRADLLVEMHRR ... Criterion not met
31. HMIPESVQGIEEFLATGALKGIGKKTAAAIVHKFGKDTLRIMEEEPERLAEVSGIGEKKAAAIGEAFALH ... Criterion met
32. HMDEFAGSAKPLADGAAPAGYDVKGNKDSMKYHEPGGRWYDATVAEVWFKTAADAEAAGFVKAGA ... Criterion met
33. HMKNTLDAYIRYLSNFLSRNNYPEAEDLSFINARADQAYEVFLEARRGGVDVSTAEELAMIALMQGY ... Criterion not met
